Hey, just so you know, these numbers are from patent US20260176365A1.

Molecular target: T1, mgp130 ECD antigen (mouse, UniProt Q00560 23-617)
T1 construct: Antigen of biopanning and PE-ELISA; The immunogen was an ECD-human IgG1 hinge-Fc fusion; also called ECD of mouse gp130; ngp130 ECD antigen (so in the source)
T1 sequence: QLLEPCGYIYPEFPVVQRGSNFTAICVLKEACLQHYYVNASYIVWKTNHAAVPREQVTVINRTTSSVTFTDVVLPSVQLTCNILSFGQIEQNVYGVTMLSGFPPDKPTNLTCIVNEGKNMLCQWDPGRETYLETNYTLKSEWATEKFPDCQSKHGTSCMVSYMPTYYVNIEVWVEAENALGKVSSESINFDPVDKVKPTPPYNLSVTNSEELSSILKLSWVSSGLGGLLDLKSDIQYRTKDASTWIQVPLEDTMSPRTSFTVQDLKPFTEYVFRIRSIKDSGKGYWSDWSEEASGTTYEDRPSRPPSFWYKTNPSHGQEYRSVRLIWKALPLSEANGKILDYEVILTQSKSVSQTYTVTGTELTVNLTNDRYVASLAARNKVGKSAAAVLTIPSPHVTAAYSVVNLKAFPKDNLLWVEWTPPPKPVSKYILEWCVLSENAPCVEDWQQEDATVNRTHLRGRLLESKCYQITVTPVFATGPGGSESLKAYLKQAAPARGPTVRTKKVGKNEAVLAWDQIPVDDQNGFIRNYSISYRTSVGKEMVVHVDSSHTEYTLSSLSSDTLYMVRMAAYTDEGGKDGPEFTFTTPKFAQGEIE
Experiment: periplasmic extract ELISA (PE-ELISA) of phage clones
value-kind: binding result

Observe how each entry below is paired with its result.
binder	binding result
mgp130_VHH28 (VHH, As periplasmic extract of the phage clone; also called anti-mouse gp130 VHH; not shown: HA/His tag of the pMECS phagemid) VHH: QVQLQESGGGLVQPGGSLRLSCAASGFTFSSYAMSWVRQAPGKGLEWVSAINSGGGSTYYADSVKGRFTISRDNAKSTLYLQLNSLKTEDTAMYYCTKHVTGDYDPSLRYEYNYWSQGTQVTVSS	binds
mgp130_VHH11 (VHH, As periplasmic extract of the phage clone; also called anti-mouse gp130 VHH; not shown: HA/His tag of the pMECS phagemid) VHH: QVQLQESGGGLVQPGGSLRLSCAASGFTFRNYAMSWVRQAPGKGLEWVSAINSGGGSTYYADSVKGRFTISRDNAKNTLYLQLNSLKTEDTAMYYCTKHVTGDYDPSLRYEYNYWSQGTQVTVSS	binds
mgp130_VHH40 (VHH, As periplasmic extract of the phage clone; also called anti-mouse gp130 VHH; not shown: HA/His tag of the pMECS phagemid) VHH: QVQLQESGGGLVQPGGSLRLSCAASGFTFSNYAMSWVRQAPGKGVEWVSAINSGGSVFYADSVKGRFTISRDNAKNTLYLQLSSLKTEDTAMYYCAKHVTGDYDPSLRYGYNVWSQGTQVTVSS	binds
mgp130_VHH18 (VHH, As periplasmic extract of the phage clone; also called anti-mouse gp130 VHH; not shown: HA/His tag of the pMECS phagemid) VHH: QVQLQESGGGSVQAGGSLRLSCAASGFTFSSYAMSWVRQAPGKGLEWVSAINSGGGSTYYADSVKARFTISRDNAKNTLYLQLNSLKTEDTAMYYCAKHVTGDYDPSLRYDYNYWGQGTQVTVSS	binds
mgp130_VHH24 (VHH, As periplasmic extract of the phage clone; also called anti-mouse gp130 VHH; not shown: HA/His tag of the pMECS phagemid) VHH: QVQLQESGGGSVQAGGSLRLSCVISGFTYRPTFMGWFRQVLGKEREGVAAITTGGGSTLYADSVKGRFTISQDSSKNTVYLEMNGLKLEDTGMYYCAATTVITSVSINRNLYQYWGQGTQVTVSS	binds
mgp130_VHH33 (VHH, As periplasmic extract of the phage clone; also called anti-mouse gp130 VHH; not shown: HA/His tag of the pMECS phagemid) VHH: QVQLQESGGGLVQPGGSLRLSCAASGFTFSSYAMSWVRQAPGKGLEWVSAINSGGGSTYYADSVKGRFTISRDNAKNTMYLQLNSLKTEDTAMYYCAKHVAGDYDPSLRYEWHVWGQGTQVTVSS	binds

Asked: I have this binder here, mgp130_VHH43 (VHH, As periplasmic extract of the phage clone; also called anti-mouse gp130 VHH; not shown: HA/His tag of the pMECS phagemid) VHH: QVQLQESGGGLVQPGGSLRLSCAASGFTFSSYAMSWVRQAPGKGLEWVSAINLGGDTTYYTDSVKGRFTISRDNAKNTLYLQLNSLKTEDTAMYYCAKHVTGDYDPSLRYEYGYWSQGTQVTVSS , and I need its recorded binding result.
Given back: binds

Asked: I have this binder here, mgp130_VHH30 (VHH, As periplasmic extract of the phage clone; also called anti-mouse gp130 VHH; not shown: HA/His tag of the pMECS phagemid) VHH: QVQLQESGGGLVQPGGSLRLSCAASGFTFSSYAMSWVRQAPGKGLEWVSAINSGGGSTYYADSVKGRFTISRDNAKNTLYLQLNSLKTEDTAMYYCAKHVTGDYDPSLRYEYNYWSQGTQVTVSS , and I need its recorded binding result.
Given back: binds
